molecular target: ORCO + Or35a (Drosophila melanogaster, UniProt Q9VNB5); construct: heteromer; cRNAs co-injected in Xenopus laevis oocytes (pGEM-HE); for DTBP, site on Orco; with Odorant receptor 35a; assay: two-electrode voltage clamp, Xenopus oocytes; conditions: agonist; holding potential -80 mV, ND96 pH 7.4, room temperature
MEASURED_ATTRIBUTE: EC50 (µM)
Respond with the bare value in µM.

What value of EC50 on ORCO + Or35a (Drosophila melanogaster, UniProt Q9VNB5) does CC(C)(C)c1ccc(O)c(C(C)(C)C)c1 [2,4-di-tert-butylphenol] have?
38.1

====

biological target: Orco homomeric receptor (Drosophila melanogaster, UniProt Q9VNB5); construct: synthesised cDNA in pGEM-HE, cRNA injected in Xenopus laevis oocytes; homotetramer; test: two-electrode voltage clamp, Xenopus oocytes; details: agonist; holding potential -80 mV, ND96 pH 7.4, room temperature
MEASURED_ATTRIBUTE: pEC50
Remember, pEC50 is on a log scale: it is -log10 of the molar concentration.

Entry `CC(C)(C)c1ccc(O)c(C(C)(C)C)c1` has what pEC50?
4.87

====

Molecular target: ORCO + Or24a (Drosophila melanogaster)
Construct: heteromer; cRNAs co-injected in Xenopus laevis oocytes (pGEM-HE); for DTBP, site on Orco; with Odorant receptor 24a
Sequence (Q9VNB5 1-486): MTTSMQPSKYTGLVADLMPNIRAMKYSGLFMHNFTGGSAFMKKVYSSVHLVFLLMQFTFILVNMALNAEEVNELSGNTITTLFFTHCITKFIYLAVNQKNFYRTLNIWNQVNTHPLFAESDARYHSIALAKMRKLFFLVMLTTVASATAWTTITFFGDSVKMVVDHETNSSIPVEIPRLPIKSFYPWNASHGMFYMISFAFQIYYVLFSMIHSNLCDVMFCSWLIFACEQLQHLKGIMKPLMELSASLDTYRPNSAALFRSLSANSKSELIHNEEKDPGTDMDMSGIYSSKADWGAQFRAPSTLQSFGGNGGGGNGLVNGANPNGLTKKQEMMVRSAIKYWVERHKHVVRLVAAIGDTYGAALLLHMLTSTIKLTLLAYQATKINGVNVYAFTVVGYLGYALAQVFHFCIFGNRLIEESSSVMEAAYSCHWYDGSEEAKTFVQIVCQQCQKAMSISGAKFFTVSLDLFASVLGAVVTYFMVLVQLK
Sequence (P81913 1-398 partner): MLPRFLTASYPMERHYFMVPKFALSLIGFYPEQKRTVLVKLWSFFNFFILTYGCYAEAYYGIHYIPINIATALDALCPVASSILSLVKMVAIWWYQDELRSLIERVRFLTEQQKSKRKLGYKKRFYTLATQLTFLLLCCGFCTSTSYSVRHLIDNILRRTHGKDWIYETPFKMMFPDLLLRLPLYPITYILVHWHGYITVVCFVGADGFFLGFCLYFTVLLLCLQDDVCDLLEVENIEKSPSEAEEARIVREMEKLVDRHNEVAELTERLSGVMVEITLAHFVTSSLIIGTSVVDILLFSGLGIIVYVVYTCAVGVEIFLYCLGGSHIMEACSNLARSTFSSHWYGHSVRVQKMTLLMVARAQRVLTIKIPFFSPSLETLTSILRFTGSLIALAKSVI
Experiment: two-electrode voltage clamp, Xenopus oocytes
Settings: agonist; holding potential -80 mV, ND96 pH 7.4, room temperature
MEASURED_ATTRIBUTE: pEC50
Remember, pEC50 is on a log scale: it is -log10 of the molar concentration.

What value of pEC50 on ORCO + Or24a (Drosophila melanogaster) does `CC(C)(C)c1ccc(O)c(C(C)(C)C)c1` have?
4.29
